Assay: NCI Yeast Anticancer Drug Screen. Data for the rad50 strain (AID 155);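 note: 0% = growth of vehicle-only cultures of the same strain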
Settings: S. cerevisiae rad50 strain growth inhibition; at 50.0 µM; active compounds read high
Experimental: Growth inhibition of yeast strains with defined genetic alterations is measured as a screen for potential anti-cancer activity. Selected strains with alterations in DNA damage repair or cell cycle control were exposed to compounds and growth inhibition was measured relative to vehicle treated controls. The strain used in this assay is rad50
About 79,000 compounds went through this panel and 15% of them were active in at least one assay; those are over-represented in the sample as a whole. *1 amine or outer side, *2 acyl side, *3 side chain or, on linkers, in order; H or OH if unused. Where a SMILES comes first, the peptide text is derived from it. Bridges are numbered along the chain shown (N, C = ends). Roman numbers before positions name the chains, in order. [ ]: non-standard residue; d: D form. The star is where a group is joined. ξ: configuration not given here. Actinocin(1to9) = Cc1c2oc3c(C)ccc(C(=O)[*:2])c3nc-2c(C(=O)[*:1])c(N)c1=O; X14 = COC1=CC(=O)N(C(=O)C(O*)C(C)C)C1Cc1ccccc1; ξNMe2Val = CC(C)C(C(=O)*)N(C)C; NMeV = CN[CH](C(=O)O)C(C)C; Sar = CNCC(=O)O
measuredAttribute: growth inhibition (%)

1. COC12CC3(C)C(C4=CC(=O)OC4)CCC3(O)C3CCC4=CC(=O)CCC4(CO1)C32 (configuration not stated)    -1.85
2. CCOc1cc(CCNC)c2c(ccc3ccc(OC)c(O)c32)c1OC    27.2
3. Cc1cc(S(=O)(=O)F)ccc1NC(=O)NCc1ccc(N2C(N)=NC(N)=NC2(C)C)cc1    -6.25
4. O=S(=O)(O)C1CCC(O)C2[N-]CCCC21.O=S(=O)(O)C1CCC(O)C2[N-]CCCC21.[Ni+2] (configuration not stated)    50.8
5. CCC[CH2][Sn]([Cl])([Cl])[CH2]CCC.c1ccncc1    95.5
6. O=C(O)c1ccccc1Cl    -8
7. CN1CCNCC1    11.1
8. CNCCc1ccc(O)cc1    -9.2
9. NNC(=O)NNC(=O)NN    -5.95
10. CC(Cc1ccccc1)N(C)CC1C(=O)C2CCC1C2 (configuration not stated)    10.5
11. COC1=CC(=O)N(C(=O)C(OC(=O)C2CCCN2C(=O)C2CCCN2C(=O)C(C(C)C)N(C)C(=O)C(NC(=O)C(C(C)C)N(C)C)C(C)C)C(C)C)C1Cc1ccccc1 (configuration not stated) (ξNMe2Val-V[NMeV]PP-X14; configuration not given here)    16.9
12. COC[n+]1cccc(C2CCC[N+]2(C)C)c1 (configuration not stated)    6.35
13. CCOP(=S)(OCC)Oc1cnn(C)c(=S)c1Cl    12.8
14. C[N+]1(C)C2CCC1CC(O)C2 (configuration not stated)    5.45
15. CCOP(=O)(CC(N)=O)OCC    -4.9
16. Clc1ccc(N2CCN(c3ccc(Cl)cc3)CC2)cc1    -20.1
17. N#CCc1ccc(CC#N)cc1    14.1
18. PCc1ccccc1.[Cl][Hg][Cl]    -34.7
19. NC(C/C=C/P(=O)(O)O)C(=O)O (configuration not stated)    -20.4
20. CCCC[C@H]1C(=O)O[C@H](C)[C@H](NC(=O)c2cccc(NC=O)c2O)C(=O)O[C@@H](C)[C@@H]1OC(=O)CC(C)C    18.4
21. Clc1ccc(C(c2ccccc2Cl)C(Cl)(Cl)Cl)cc1 (configuration not stated)    -24.6
22. COC(=O)c1cc([N+](=O)[O-])cc([N+](=O)[O-])c1    9
23. C#CC(C)N1CCC2(CC1)C(=O)NCN2c1ccccc1 (configuration not stated)    -19.3
24. O=Cc1ccccc1.[C-]#[O+].[C-]#[O+].[C-]#[O+].[Cr]    7.35
25. COc1ccc2c(c1)[C@@]13CCCC[C@H]1[C@@H](C2)N(C)CC3=O    41.5
26. CNC(=O)Oc1cccc(N)c1    5.35
27. Nc1nc(-c2ccccc2)c[se]1    63.6
28. COc1ccc(C(CC(=O)O)CC(=O)c2ccc(N(CCCl)CCCl)cc2)cc1 (configuration not stated)    54
29. CCC(C)C1NC(=O)C(NC(=O)c2c3nc4c(C(=O)NC5C(=O)NC(C(C)C)C(=O)N6CCCC6C(=O)N(C)CC(=O)N(C)C(C(C)C)C(=O)OC5C)ccc(C)c4oc-3c(C)c(=O)c2N)C(C)OC(=O)C(C(C)C)N(C)C(=O)CN(C)C(=O)C2CCCN2C1=O (configuration not stated) (I: TIP[Sar][NMeV] / II: TVP[Sar][NMeV]; ester I:1-I:C, II:1-II:C; linker I:N-II:N via Actinocin(1to9); configuration not given here)    88
30. CN1C2c3ccccc3C3C4c5ccccc5C(C31)C(C2[N+](=O)[O-])N4C (configuration not stated)    -12.8
31. CCCCCCCCCCOP(OCCCCCCCCCC)Oc1ccccc1    47.1
32. CCC(C)C(=O)OC1CC2(C)C(c3ccoc3)OC(=O)CC23OC2(C)OC34C(OC(=O)C(C)C)C3(O)C(OC(=O)C5(C)OC5C)C5(C)CC3(O)C(C)(C5CC(=O)OC)C14O2 (configuration not stated)    24.4
33. C=CCNC(=O)C(Br)C(C)C (configuration not stated)    -9.8
34. CCCCCCCCCCCCCCCC(=O)OCC(C[As](=O)(O)O)OC(=O)CCCCCCCCCCCCCCC (configuration not stated)    26.1
35. CC(=O)Nc1cccc([As]=O)c1 (configuration not stated)    11.5
36. Clc1ccc(N=c2ccc3ccccc3[oH+]2)cc1.Clc1ccc(N=c2ccc3ccccc3[oH+]2)cc1.[Co]    -5.05
37. COc1cc(-c2ccc(N)c(OC)c2)ccc1N    26.7
38. O=C(CCC1CCCCN1)Nc1ccc2c(c1)C(=O)c1ccc(NC(=O)CCN3CCCCC3)cc1C2=O (configuration not stated)    6.2
39. Oc1ccccc1I    11.9
40. c1ccc2c(C3N4CCCN3CC4)c[nH]c2c1 (configuration not stated)    -0.2
41. Nc1ccccc1Nc1ccccc1C(=O)[O-].Nc1ccccc1Nc1ccccc1C(=O)[O-].[Cu+2]    -3.5
42. O=P(O)(Nc1ccccc1)Nc1ccccc1    21.7

* * *

assay: NCI Yeast Anticancer Drug Screen. Data for the mec2-1 strain (AID 157); details: S. cerevisiae mec2-1 strain, at 50.0 µM, active compounds read high
Compounds without any hit were thinned out: in the full panel of roughly 79,000, 15% have a hit.
The reader will find reported growth inhibition values listed item by item below.
measuredAttribute: growth inhibition (%)

1) O=C(O)C(O)(c1ccccc1)c1ccco1 (configuration not stated)    1.8
2) COc1ccc(N)cc1N    18.1
3) COc1ccc(CCl)cc1CCl    -62.8
4) [N-]=[N+]=Nc1ccnc2cc(Cl)ccc12    -5.55
5) CN(C)C(=O)N(CCCl)N=O    -4.2
6) Nc1ccccc1Nc1ccccc1C(=O)[O-].Nc1ccccc1Nc1ccccc1C(=O)[O-].[Cu+2]    7.8
7) CCCCCCCCCCCCCC(=O)O.[Pb]    7.35
8) COc1ccc(OC)c(CCc2cc(OC)ccc2OC)c1    -13.2
9) CCC[As](=O)(O)c1ccc(Cl)cc1    99.5
10) C[C@]12CC[C@H]3[C@@H](CCC4=C(Br)C(=O)CC[C@@H]43)[C@@H]1CC[C@@H]2O    2.3
11) c1cc[n+]2c(c1)-c1cccc[n+]1CC2    11
12) CN1C(c2cccnc2)=NCC12CCCC2    -10.1
13) CCC(Br)C(=O)OCCCl (configuration not stated)    13.7
14) CNP1(N(C)C)=NP(NC)(N(C)C)=NP(NC)(N(C)C)=N1 (configuration not stated)    12.9
15) O=C(CC(=O)c1ccccc1)c1ccccc1.[Tl]    91.5
16) NC(=O)Cc1ccccc1    -14.9
17) O=c1c(O)c(-c2ccccc2)oc2ccccc12    14.8
18) CC(C)C(O)(C(=O)OCC1=CCN2CCC(O)C12)C(C)O (configuration not stated)    0.1
19) O=C(O)C(=O)O.[NH2-].[NH2-].[Pt+2]    -4.9
20) NC(=O)c1cc([N+](=O)[O-])cc([N+](=O)[O-])c1N(CCCl)CCCl    -10.9
21) O=Cc1ccccc1O.[La]    -28.1
22) COc1ccc2nc3ccccc3c(NCCCN(C)CCCl)c2c1    56.5
23) C1C2CC3C1C1CN3C21 (configuration not stated)    2.65
24) O=c1oc2cc(O)ccc2c(O)c1C(c1ccc2ccccc2c1)c1c(O)c2ccc(O)cc2oc1=O    31.2
25) [N-]=[N+]=NC(=O)Nc1ccccc1F    -1.1
26) NCC(O)CSP(=O)(O)O (configuration not stated)    -9.85
27) NC(Cc1ccccc1)c1nn[nH]n1 (configuration not stated)    -19.1
